biological target: Acetylcholinesterase (Electrophorus electricus); assay: Inhibition of Electrophorus electricus Type V-S acetylcholinesterase using […] as substrate by spectrophotometric Ellman's assay
Measurement Type: IC50 (µM)

{"Smiles Record": "COC(=O)Nc1cnccc1N", "Display Unit": "µM", "Bound Type": ">", "Data Value": 500}
{"Smiles Record": "Nc1cnccc1NC(=O)c1ccccc1", "Display Unit": "µM", "Bound Type": ">", "Data Value": 500}
{"Smiles Record": "CC(C)OC(=O)CCC(=O)Nc1ccncc1N", "Display Unit": "µM", "Bound Type": "=", "Data Value": 88.3}
{"Smiles Record": "CC(=O)Nc1ccncc1N", "Display Unit": "µM", "Bound Type": "=", "Data Value": 61.3}
{"Smiles Record": "Nc1cnccc1NC(=O)OCc1ccc(OC(=O)C2CCCC2)cc1", "Display Unit": "µM", "Bound Type": "=", "Data Value": 11.6}
{"Smiles Record": "CC(=O)Nc1ccncc1NC(C)=O", "Display Unit": "µM", "Bound Type": "=", "Data Value": 34.2}
{"Smiles Record": "CCCC(=O)Oc1ccc(COC(=O)Nc2ccncc2N)cc1", "Display Unit": "µM", "Bound Type": "=", "Data Value": 48.8}
{"Smiles Record": "CC(C)C(=O)OCCOC(=O)Nc1ccncc1N", "Display Unit": "µM", "Bound Type": "=", "Data Value": 25.9}

----------
target: Acetylcholinesterase (Electrophorus electricus); assay: Inhibition of Electrophorus electricus Type V-S acetylcholinesterase using […] as substrate by spectrophotometric Ellman's assay
pKi: −log10 of the molar value.

{"Smiles Record": "Nc1cnccc1NC(=O)OCc1ccc(OC(=O)C2CCCC2)cc1", "pKi": 5.17}
{"Smiles Record": "CC(C)C(=O)OCCOC(=O)Nc1ccncc1N", "pKi": "< 3.30"}
{"Smiles Record": "COC(=O)Nc1ccncc1NC(=O)OC", "pKi": "< 3.30"}

----------
biological target: Acetylcholinesterase (Electrophorus electricus); experiment: Inhibition of Electrophorus electricus Type V-S acetylcholinesterase using […] as substrate by spectrophotometric Ellman's assay
Property: IC50; scope: individual compounds
Measurement Type: IC50

{"Smiles Record": "CC(C)CC(=O)Oc1ccc(COC(=O)Nc2ccncc2N)cc1", "Data Value": "11.9 µM"}
{"Smiles Record": "COc1cccc(C(=O)Oc2ccc(COC(=O)Nc3ccncc3N)cc2)c1", "Data Value": "163 µM"}
{"Smiles Record": "CC(C)C(=O)Oc1ccc(COC(=O)Nc2ccncc2N)cc1", "Data Value": "8.5 µM"}
{"Smiles Record": "CC(C)C(=O)OCc1ccccc1COC(=O)Nc1ccncc1N", "Data Value": "496 µM"}

----------
target: Acetylcholinesterase (Electrophorus electricus, UniProt O42275); test: Inhibition of Electrophorus electricus Type V-S acetylcholinesterase using […] as substrate by spectrophotometric Ellman's assay
Sequence (O42275 whole entry): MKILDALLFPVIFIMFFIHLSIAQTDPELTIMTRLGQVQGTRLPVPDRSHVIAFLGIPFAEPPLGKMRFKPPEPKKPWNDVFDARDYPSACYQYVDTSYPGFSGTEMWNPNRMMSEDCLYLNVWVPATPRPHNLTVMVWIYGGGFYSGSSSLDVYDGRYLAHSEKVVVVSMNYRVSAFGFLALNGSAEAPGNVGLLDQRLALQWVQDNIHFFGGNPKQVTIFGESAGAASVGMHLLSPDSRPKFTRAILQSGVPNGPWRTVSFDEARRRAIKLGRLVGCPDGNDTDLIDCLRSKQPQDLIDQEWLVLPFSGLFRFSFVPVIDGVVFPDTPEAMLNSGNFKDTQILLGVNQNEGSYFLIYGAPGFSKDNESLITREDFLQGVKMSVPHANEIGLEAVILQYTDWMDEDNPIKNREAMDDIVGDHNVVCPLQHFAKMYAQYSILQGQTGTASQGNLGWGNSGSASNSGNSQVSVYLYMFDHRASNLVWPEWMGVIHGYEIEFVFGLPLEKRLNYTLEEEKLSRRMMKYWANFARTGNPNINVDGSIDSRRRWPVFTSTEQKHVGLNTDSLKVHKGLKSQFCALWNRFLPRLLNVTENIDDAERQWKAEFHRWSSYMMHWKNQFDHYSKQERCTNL
IC50 strictly under 100 µM means fulfilled; at 100 µM or over means not fulfilled.

{"Smiles Record": "CCC(=O)Oc1ccc(COC(=O)Nc2ccncc2N)cc1", "Label": "fulfilled"}
{"Smiles Record": "CC(=O)Oc1ccc(COC(=O)Nc2ccncc2N)cc1", "Label": "fulfilled"}
{"Smiles Record": "COC(=O)Nc1ccncc1NC(=O)OC", "Label": "fulfilled"}
{"Smiles Record": "Nc1cnccc1NC(=O)C1CCCC1", "Label": "not fulfilled"}
{"Smiles Record": "Nc1cnccc1NC(=O)OCc1ccc(OC(=O)Cc2ccccc2)cc1", "Label": "not fulfilled"}
{"Smiles Record": "COC(=O)Nc1ccncc1N", "Label": "fulfilled"}
{"Smiles Record": "Nc1cnccc1NC(=O)OCc1ccc(OC(=O)c2ccccc2)cc1", "Label": "not fulfilled"}
